B1: UBE2R2 (parent)
chain: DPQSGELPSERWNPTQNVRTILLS

# Variants of: B1
# ASSAY INFO: protein stability index of a GFP-peptide fusion (GPS, HEK-293T) (PSI 1-6); higher = more stable;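 also: lentivirally expressed fusions sorted by FACS into six bins by GFP to DsRed ratio, PSI derived from sequencing read proportions per bin multiplied by bin number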
# MEASUREMENT CONTEXT: c terminus: a fixed tail appended
Criterion: protein stability index meeting or surpassing 4. Met: t. Not met: f.

Hi, just wondering whether "S9W" shows protein stability index of 4 or higher.
f

protein stability index >= 4 for "P8K" ?
f

Does "N17Q" have a reported protein stability index of at least 4?
f

Has "W12P" a recorded protein stability index greater than or equal to 4?
t

Quick check: does "T20Y" have protein stability index greater than or equal to 4?
f

Hi, just wondering whether "Q16T" shows protein stability index of 4 or higher.
t

Decide: is the reported value of protein stability index for "N13E" equal to or greater than 4?
f

Would you say "T15C" shows protein stability index at minimum 4?
f

Quick check, protein stability index >= 4? "V18A"
t

Reported protein stability index at or above 4? "T20K"
t

Could you please find out whether "W12N" has protein stability index that meets 4 or exceeds it?
t

Hi, just wondering whether "T20P" shows protein stability index of 4 or higher.
f

Please check the record "L7Y" and state if its protein stability index is at or above 4.
f

Does protein stability index meet or surpass 4 for "E10C" ?
f

# bool: protein stability index of "Q16K" >= 4
f

Please check the record "S24W" and state if its protein stability index is at or above 4.
f

Form field: protein stability index at least 4? Entry: "L22Q"
t

Is protein stability index for "T20R" at or above 4?
f

Textbook exercise: given the entry "P8D" , state whether its protein stability index is greater than or equal to 4.
f

API: above_or_equal(metric=protein stability index, cutoff=4) for item "D1T"
f

Threshold query (protein stability index >= 4) on "N17A"
f

Kindly determine if protein stability index recorded for "N13K" is above or exactly 4.
f

Dear colleague, could you confirm whether "E6P" has protein stability index at or above 4?
f

Determine whether this variant has protein stability index no lower than 4: "W12I"
t

Check the entry "S24F" : does protein stability index equal or exceed 4?
f

Hi team, for "L22K" , is the recorded protein stability index at or above 4?
t

Determine whether this variant has protein stability index no lower than 4: "S24M"
f

Check this variant for protein stability index at or above 4: "V18R"
t

Textbook exercise: given the entry "I21E" , state whether its protein stability index is greater than or equal to 4.
t

Confirm if protein stability index reported for the variant "R11N" is 4 or above.
f

Given "N13Q" , state whether its protein stability index is at least 4.
f

Please check the record "R19I" and state if its protein stability index is at or above 4.
f

Is reported protein stability index greater than or equal to 4 here: "R11Y"
f

Hello, I need to know if "S9F" has measured protein stability index not below 4. Thanks!
f

Does protein stability index meet or surpass 4 for "I21Q" ?
t

Record "S9M" ; criterion: protein stability index no lower than 4. Met?
f

Decide: protein stability index of "N13D" >= 4?
t

Determine whether measured protein stability index meets or exceeds 4 for "L7C"
f

Say whether "E6Y" shows protein stability index of 4 or more.
f

Does the variant "N17L" have recorded protein stability index that is 4 or more?
f

Please check the record "W12Q" and state if its protein stability index is at or above 4.
t

Answer whether protein stability index of "E10V" is greater than or equal to 4.
f

# check: protein stability index of "Q16Y" is greater than or equal to 4
f

Hello, I need to know if "P14T" has measured protein stability index not below 4. Thanks!
t

Can "N13Y" be said to have protein stability index at or above 4?
f

Is protein stability index at least 4? Consider "E6F"
f

Check this variant for protein stability index at or above 4: "L22H"
t

Determine whether this variant has protein stability index no lower than 4: "G5A"
f

Does the reported protein stability index for "N13R" fall at or above the 4 mark?
f

Is protein stability index for "S24I" at or above 4?
f

Confirm if protein stability index reported for the variant "L23W" is 4 or above.
f

Dear colleague, could you confirm whether "W12V" has protein stability index at or above 4?
t

Hi, just wondering whether "S9R" shows protein stability index of 4 or higher.
f

Could you tell me if the measured protein stability index of "P14F" reaches 4 or more?
f

Determine whether this variant has protein stability index no lower than 4: "E10T"
f

Decide: is the reported value of protein stability index for "V18W" equal to or greater than 4?
f

Record "S24D" ; criterion: protein stability index no lower than 4. Met?
t

Does protein stability index meet or surpass 4 for "S24C" ?
f

Decide: is the reported value of protein stability index for "S4H" equal to or greater than 4?
f

Say whether "Q3P" shows protein stability index of 4 or more.
f

Could you verify whether the entry "R19Q" shows protein stability index of no less than 4?
f

Say whether "P8N" shows protein stability index of 4 or more.
f

Record "T15H" ; criterion: protein stability index no lower than 4. Met?
f

Given "I21G" , state whether its protein stability index is at least 4.
t

Exam item: decide whether the reported protein stability index for "E10I" is at least 4.
f

// inclusive: protein stability index at least 4? input: "P8R"
f

Is the recorded value of protein stability index equal to or greater than 4 for this variant? "E10R"
f

# check: protein stability index of "G5M" is greater than or equal to 4
f

Would you say "D1F" shows protein stability index at minimum 4?
f

Is protein stability index at least 4? Consider "S4T"
f

Could you please find out whether "P2E" has protein stability index that meets 4 or exceeds it?
f

Determine whether measured protein stability index meets or exceeds 4 for "T20D"
f

Is protein stability index at least 4? Consider "I21Y"
f

Could you tell me if the measured protein stability index of "T20Q" reaches 4 or more?
f

// inclusive: protein stability index at least 4? input: "S24R"
f

Entry "R11M" : is its protein stability index no less than 4?
f

Does the variant "P2T" have recorded protein stability index that is 4 or more?
f

Entry "E6D" : is its protein stability index no less than 4?
f

# check: protein stability index of "N13H" is greater than or equal to 4
f

Does "P2G" have a reported protein stability index of at least 4?
f
